B1: Tesmin, residues 368 to 403; numbered along this chain, Q9Y4I5 (parent)
chain: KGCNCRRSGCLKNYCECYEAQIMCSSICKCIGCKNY

# Variants of: B1
# PROTOCOL: abundance fitness (aPCA) (normalised: wild type 0, dead -1); higher = more abundant; growth selection in yeast, the domain comes from the species named
# ASSAY CONTEXT: Homo sapiens
The label depends only on abundance fitness: true if it is at least -0.3, false if it is smaller.

Would you please look over these solved cases?
VARIANT DESIGNATION: S25C
CLASS: false

VARIANT DESIGNATION: I31A
CLASS: true

VARIANT DESIGNATION: R6Q
CLASS: true

VARIANT DESIGNATION: E19S
CLASS: true

VARIANT DESIGNATION: S8G
CLASS: true

# bool: abundance fitness of S25G >= -0.3
true

Test whether the variant S8H records abundance fitness of -0.3 or higher.
false

I'd appreciate it if you could say whether I22Q has abundance fitness at least equal to -0.3.
true

Identify whether the reported abundance fitness of the following variant is -0.3 or greater: C3A
false
